# tgt: MMP-14 (Homo sapiens, UniProt P50281)
# protocol: Selection and phage ELISA screening of anti-MMP-14 Fabs
# Type: binding
# particulars: Fab from FAB310 phage display library

molecule: M0040-H09: Fab that binds human MMP-14; DNA LV SEQ ID NO: 102, HV SEQ ID NO: 103 (protein, Synthetically generated oligonucleotide) chain 1: QSELTQDPAVSVALGQAVIITCQGDSLRTYYPSWYQQKPGQAPTLLVYGKNKRPSGVPDRFSGSRSGDTASLIITGAQAEDDADYYCNSRDGSGHLFVFGPGTTVTVL chain 2: EVQLLESGGGLVQPGGSLRLSCAASGFTFSLYPMQWVRQAPGKGLEWVSYIRSSGGKTHYADSVKGRFTISRDNSKNTLYLQMNSLRAEDTAVYYCARVGMGSGWYTGYFDLWGRGTLVTVSS
bind to human MMP-14: bind to human MMP-14
--
molecule: M0041-A05: Fab that binds human MMP-14; DNA LV SEQ ID NO: 104, HV SEQ ID NO: 105 (antibody, V domains shown, Synthetically generated oligonucleotide) VL: QDIQMTQSPSSLSASVGDRVTITCRASQNINSYLNWYQQKPGKAPKLLIYAASSLQSGVPSRFSGSGSGTDFTLTISSLQPEDFVTYYCQQSYSTPKTFGQGTKVEIK VH: EVQLLESGGGLVQPGGSLRLSCAASGFTFSVYTMHWVRQAPGKGLEWVSVIYPSGGLTIYADSVKGRFTISRDNSKNTLYLQMNSLRAEDTAVYYCARNRGYYAPMDVWGQGTTVTVSS
bind to human MMP-14: bind to human MMP-14
